System: cultured human mast cells
Method: Degranulation inhibition test using cultured human mast cells (IgE cross-linking, β-Hexosaminidase release)
Format: cell-based
Study conditions: Mast cell; Tables 1-x, compounds A; cultured human mast cells; read-out: human degranulation ave. IC50
pIC50: −log10 of the molar value. Counter-ions that a name gives are not always drawn.
Recorded endpoint: pIC50

{"Molecule": "Cc1ccnc(Nc2cccc(-c3cnc(N4CCC(C)(C(=O)O)CC4)s3)n2)c1 [Compound A-540]", "pIC50": "6.00 to 7.00"}

Provide the documented pIC50 with cultured human mast cells as the system for Cc1ccnc(Nc2cccc(-c3cnc(CCC4CCC(C(=O)O)CC4)s3)n2)c1 (centres unmarked) [Compound A-612]
< 6.00

Can you handle Cc1ccnc(Nc2cccc(-c3cnc(N4CC[C@@H](NC(=O)CO)C4)s3)n2)c1 [Compound A-475] next?
6.00 to 7.00

Can you handle CNC(=O)[C@@H]1CCCN1c1ncc(-c2cccc(Nc3cc(C)ccn3)n2)s1 [Compound A-488, dihydrochloride] next?
6.00 to 7.00

Can you handle COc1ccnc(Nc2cccc(-c3cnc(N4CCN(C(C)=O)CC4)s3)n2)c1 [Compound A-442] next?
6.00 to 7.00

Can you handle Cc1ccnc(Nc2cccc(-c3cnc(N(C)[C@H]4CC[C@@H](CC(=O)O)CC4)s3)n2)c1 [Compound A-611] next?
6.00 to 7.00

Can you handle CNC(=O)C1CCN(c2ncc(-c3cccc(Nc4cc(OC)ccn4)n3)s2)CC1 [Compound A-436] next?
6.00 to 7.00

Can you handle COc1ccnc(Nc2cccc(-c3cnc(N4CCOCC4)s3)n2)c1 [Compound A-422] next?
6.00 to 7.00

Can you handle Cc1ccnc(Nc2cccc(-c3cnc(C4CCCN(S(C)(=O)=O)C4)s3)n2)c1 (centres unmarked) [Compound A-392] next?
6.00 to 7.00

Can you handle CNC(=O)N1CCC(N(C)c2ncc(-c3cccc(Nc4cc(C)ccn4)n3)s2)CC1 [Compound A-460] next?
6.00 to 7.00

Can you handle Cc1ccnc(Nc2cccc(-c3cnc(CN4C[C@H](NCc5ccccc5)[C@@H](O)C4)s3)n2)c1 [Compound A-400] next?
6.00 to 7.00

Can you handle Cc1ccnc(Nc2cccc(-c3cnc(CN4CCC(O)C4)s3)n2)c1 (centres unmarked) [Compound A-380] next?
6.00 to 7.00

Can you handle CN[C@@H](Cc1ccc(O)cc1)c1ncc(-c2cccc(Nc3cc(C)ccn3)n2)s1 [Compound A-384] next?
6.00 to 7.00

Can you handle Cc1ccnc(Nc2cccc(-c3cnc(N4CCOc5c(C(=O)O)cccc54)s3)n2)c1 [Compound A-614] next?
< 6.00

Can you handle CC(=O)N1CCC(N(CCO)c2ncc(-c3cccc(Nc4cc(C)ccn4)n3)s2)CC1 [Compound A-525] next?
6.00 to 7.00

Can you handle Cc1ccnc(Nc2cccc(-c3cnc(N4CC[C@@H](NS(C)(=O)=O)C4)s3)n2)c1 [Compound A-489] next?
6.00 to 7.00

Can you handle Cc1ccnc(Nc2cccc(-c3cnc(N(C)C4CCN(C(=O)CO)CC4)s3)n2)c1 [Compound A-459] next?
6.00 to 7.00

Can you handle Cc1ccnc(Nc2cccc(-c3cnc(N4CCC(C(=O)N(C)C)CC4)s3)n2)c1 [Compound A-434] next?
< 6.00

Can you handle CC(=O)N[C@H]1CN(Cc2ncc(-c3cccc(Nc4cc(C)ccn4)n3)s2)C[C@@H]1O [Compound A-414] next?
6.00 to 7.00

Can you handle Cc1ccnc(Nc2cccc(-c3cnc(CN4C(=O)CNCC4=O)s3)n2)c1 [Compound A-415] next?
6.00 to 7.00

Can you handle CC(=O)N1CCC(N(c2ncc(-c3cccc(Nc4cc(C)ccn4)n3)s2)C(C)C)CC1 [Compound A-515] next?
< 6.00

Can you handle CC(=O)Oc1ccc(C(=O)N2CCC(c3ncc(-c4cccc(Nc5cc(C)ccn5)n4)s3)CC2)cc1 [Compound A-377] next?
6.00 to 7.00

Can you handle Cc1ccnc(Nc2cccc(-c3cnc(C4CCC(CC(=O)O)CC4)s3)n2)c1 (centres unmarked) [Compound A-595, hydrochloride] next?
6.00 to 7.00

Can you handle Cc1ccnc(Nc2cccc(-c3cnc(N4C[C@@H](O)[C@@H](O)C4)s3)n2)c1 [Compound A-423] next?
6.00 to 7.00

Can you handle COc1ccnc(Nc2cccc(-c3cnc(N4CCC[C@H]4C(N)=O)s3)n2)c1 [Compound A-541] next?
6.00 to 7.00

Can you handle Cc1ccnc(Nc2cccc(-c3cnc(N(C)Cc4cccc(C(=O)O)c4)s3)n2)c1 [Compound A-586, dihydrochloride] next?
< 6.00
